# System tested: Vitamin K-dependent protein C (Homo sapiens)
# Sequence (P04070 43-197 limits assumed): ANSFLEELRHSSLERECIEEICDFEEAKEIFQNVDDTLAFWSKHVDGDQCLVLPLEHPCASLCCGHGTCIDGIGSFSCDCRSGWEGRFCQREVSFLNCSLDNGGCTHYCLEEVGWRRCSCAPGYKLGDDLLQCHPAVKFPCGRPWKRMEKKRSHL
# Sequence (P04070 212-461 limits assumed): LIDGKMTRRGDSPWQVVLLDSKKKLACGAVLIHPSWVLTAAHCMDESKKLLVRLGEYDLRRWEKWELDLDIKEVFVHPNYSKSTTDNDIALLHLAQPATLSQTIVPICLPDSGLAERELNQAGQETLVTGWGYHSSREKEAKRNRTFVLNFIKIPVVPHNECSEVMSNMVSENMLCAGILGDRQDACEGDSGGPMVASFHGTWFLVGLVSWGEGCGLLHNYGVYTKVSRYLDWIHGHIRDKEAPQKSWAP
# Assay text: Inhibition of human activated Protein C using Mes-DArg-Pro-Arg-AMC as substrate by Dixon plot analysis
pKi: −log10 of the molar value.
In this section, each of the compounds is paired with its reported pKi.

Give Vitamin K-dependent protein C (Homo sapiens) pKi for CC(C)(C)OC(=O)N[C@@H]1Cc2ccc(cc2)NC(=O)CCN2CCN(CCC(=O)Nc3ccc(cc3)C[C@@H](C(=O)NCc3ccc(CN)cc3)NC1=O)CC2
< 4.00

Consider next the compound N=C(N)c1ccc(CNC(=O)[C@@H]2Cc3ccc(cc3)NC(=O)CN3CCN(CC3)CC(=O)Nc3ccc(cc3)C[C@@H](NS(=O)(=O)c3ccccc3)C(=O)N2)cc1 in the same way.
< 4.52

Consider next the compound N=C(N)c1ccc(CNC(=O)[C@@H]2Cc3ccc(cc3)NC(=O)CN3CCN(CC3)CC(=O)Nc3ccc(cc3)C[C@@H](NS(=O)(=O)NC3CCCCC3)C(=O)N2)cc1 in the same way.
< 4.52

----------
# System tested: Plasma kallikrein (Homo sapiens)
# Sequence (P03952 20-390 limits assumed): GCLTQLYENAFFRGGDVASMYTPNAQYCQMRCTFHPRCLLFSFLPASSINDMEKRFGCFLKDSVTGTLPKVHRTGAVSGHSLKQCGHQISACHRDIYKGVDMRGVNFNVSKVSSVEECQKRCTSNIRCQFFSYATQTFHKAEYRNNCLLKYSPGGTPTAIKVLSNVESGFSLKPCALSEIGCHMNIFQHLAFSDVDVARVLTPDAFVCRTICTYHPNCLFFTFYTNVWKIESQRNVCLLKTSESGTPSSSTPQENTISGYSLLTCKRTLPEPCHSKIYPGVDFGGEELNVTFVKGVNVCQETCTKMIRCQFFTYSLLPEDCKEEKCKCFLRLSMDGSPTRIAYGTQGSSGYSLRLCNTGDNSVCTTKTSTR
# Sequence (P03952 391-638 limits assumed): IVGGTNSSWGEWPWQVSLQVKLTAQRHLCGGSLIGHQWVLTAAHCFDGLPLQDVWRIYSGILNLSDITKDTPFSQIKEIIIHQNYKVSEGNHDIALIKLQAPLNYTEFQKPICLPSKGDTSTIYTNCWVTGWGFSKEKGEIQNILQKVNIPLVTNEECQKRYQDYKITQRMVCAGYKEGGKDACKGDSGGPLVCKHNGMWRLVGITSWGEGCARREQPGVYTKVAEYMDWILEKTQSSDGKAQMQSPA
# Assay text: Inhibition of human plasma kallikrein using Mes-DArg-Pro-Arg-AMC as substrate by Dixon plot analysis
pKi: −log10 of the molar value.
Readout: pKi

[[record]]
mol = "N=C(N)c1ccc(CNC(=O)[C@@H]2Cc3ccc(cc3)NC(=O)CCN3CCN(CCC(=O)Nc4ccc(cc4)C[C@@H](NC(=O)CCc4ccccc4)C(=O)N2)CC3)cc1"
value_measured = 5.13

[[record]]
mol = "N=C(N)c1ccc(CNC(=O)[C@@H]2Cc3ccc(cc3)NC(=O)CCN3CCN(CCC(=O)Nc4ccc(cc4)C[C@@H](NC(=O)CCCc4ccccc4)C(=O)N2)CC3)cc1"
value_measured = 4.98

[[record]]
mol = "N=C(N)c1ccc(CNC(=O)[C@@H]2Cc3ccc(cc3)NC(=O)CN3CCN(CC3)CC(=O)Nc3ccc(cc3)C[C@@H](NC(=O)CCc3ccccc3)C(=O)N2)cc1"
value_measured = 5.08


----------
pKi: −log10 of the molar value.
Reported values: pKi for Coagulation factor X (Homo sapiens), one per item.

Would you please look over these solved cases?
[[record]]
mol = "N=C(N)c1ccc(CNC(=O)[C@@H]2Cc3ccc(cc3)NC(=O)CCN3CCN(CCC(=O)Nc4ccc(cc4)C[C@@H](NC=O)C(=O)N2)CC3)cc1"
system_tested = "Coagulation factor X (Homo sapiens)"
value_measured = "< 4.00"

[[record]]
mol = "CC(C)(C)OC(=O)N[C@@H]1Cc2ccc(cc2)NC(=O)CCN2CCN(CCC(=O)Nc3ccc(cc3)C[C@@H](C(=O)NCc3ccc(CN)cc3)NC1=O)CC2"
system_tested = "Coagulation factor X (Homo sapiens)"
value_measured = "< 4.00"


# context switch: different compound, same pKi
State the recorded pKi for this entry: N=C(N)c1ccc(CNC(=O)[C@@H]2Cc3ccc(cc3)NC(=O)CCN3CCN(CCC(=O)Nc4ccc(cc4)C[C@@H](NS(=O)(=O)c4ccccc4)C(=O)N2)CC3)cc1
< 4.89
